The reported measurements were obtained from ChEMBL document CHEMBL3351576.

Consider the following compounds; for each one, report its viability at 10 µM.
# Tested on: A549
# procedure details: Cytotoxicity against human A549 cells assessed as cell viability at 10 uM by SRB assay
# Format: functional
# condition description: read-out: Activity
Record the value in %, omitting the unit from your answer.

*Q* Reported viability at 10 µM for A549, given CC1=CC(=O)[C@@H](O)[C@@]2(C)[C@H]1CC(=O)[C@@]1(C)[C@H]3C(=O)O[C@H]([C@@H]3C)[C@H](O)[C@@H]12 ?
*A* 71.5

*Q* API: value(readout= viability at 10 µM, system= A549, query= C=C1C[C@H](O)[C@@H](O)[C@]2(C)[C@H]3[C@@H](O)[C@H](O)[C@H](C)[C@@H]4C(=O)O[C@H]([C@H](O)[C@@H]12)[C@]34C )
*A* 101

*Q* Report viability at 10 µM for COc1cccc2c1C(=O)c1c(O)c3c(c(O)c1C2=O)C[C@@](O)(C(=O)CO)C[C@@H]3O[C@H]1C[C@H](N)[C@@H](O)[C@H](C)O1 [EPIRUBICIN] tested on A549.
*A* 0.61

*Q* Request - read-out viability at 10 µM | tested on A549 | compound C[C@H]1[C@H]2OC(=O)[C@@H]1[C@]1(C)C(=O)C=C3[C@@](C)(O)C[C@H](O)[C@@H](O)[C@]3(C)C1[C@H]2O (some centres undefined)
*A* 102

*Q* API: value(readout=viability at 10 µM, system=A549) for record C=C1[C@@H](O)[C@@]2(O)OC[C@]34[C@H]2[C@@]2(C)[C@H](O)C(=O)C=C(C)[C@@H]2C[C@H]3OC(=O)[C@H](O)[C@@]14O
*A* 101

*Q* Tell me reported viability at 10 µM for CC1=CC(=O)[C@@H](O)[C@]2(C)[C@H]3[C@@H](O)[C@H](O)[C@H](C)[C@]4(O)[C@@H](O)C(=O)O[C@H](C[C@@]12O)[C@]34C , tested with A549.
*A* 101

*Q* Give A549 viability at 10 µM for CC1=CC(=O)[C@@H](O)[C@@]2(C)[C@H]1[C@@H](O)[C@H]1OC(=O)C3[C@@H](C)[C@H](O)[C@H](O)[C@H]2[C@]31C (some centres undefined)
*A* 99.8

*Q* Tell me reported viability at 10 µM for CC1=C2C[C@H]3OC(=O)[C@H](O)[C@@]4(O)[C@@H](C)[C@]5(O)C(=O)OC[C@]34C5[C@@]2(C)[C@H](O)[C@@H](O)C1 (some centres undefined) , tested with A549.
*A* 103

*Q* Field: viability at 10 µM (A549). Entry: CC1=CC(=O)[C@@H](O)[C@]2(C)[C@H]3[C@@H](O)[C@H](O)[C@H](C)[C@]4(O)[C@@H](O)C(=O)O[C@H](C[C@@H]12)[C@]34C
*A* 86.4

====

For each entry below, report its viability at 100 µM value.
# System: HeLa
# procedure details: Cytotoxicity against human HeLa cells assessed as cell viability at 100 uM by SRB assay
# Type: functional
# condition description: read-out: Activity
Give your result in % as a bare value.

*Q* Give the measured viability at 100 µM of CC1=CC(=O)O[C@H]1[C@@]1(C)C[C@H]2OC(=O)[C@H](O)[C@@]3(O)[C@@H](C)[C@@H](O)[C@H](O)[C@H]1[C@@]23C .
*A* 103

*Q* Fill blank: measured viability at 100 µM of the molecule CC1=CC(=O)[C@@H](O)[C@@]2(C)[C@H]1[C@@H](O)[C@H]1OC(=O)C3[C@@H](C)[C@H](O)[C@H](O)[C@H]2[C@]31C (some centres undefined) is ____.
*A* 66.9

*Q* Which viability at 100 µM value belongs to CC1=C2C[C@H]3OC(=O)[C@H](O)[C@@]4(O)[C@@H](C)[C@]5(O)C(=O)OC[C@]34C5[C@@]2(C)[C@H](O)[C@@H](O)C1 (some centres undefined) ?
*A* 103

*Q* Would you mind telling me what viability at 100 µM value was observed for C=C1C[C@H](O)[C@@H](O)[C@]2(C)[C@H]3[C@@H](O)[C@H](O)[C@H](C)[C@@H]4C(=O)O[C@H]([C@H](O)[C@@H]12)[C@]34C ?
*A* 98.7

*Q* GET /values?readout=viability at 100 µM&item= CC1=CC(=O)O[C@H]1[C@@]1(C)C[C@H]2OC(=O)[C@H](O)[C@@]3(O)[C@@H](C)C(=O)C(O)=C1[C@@]23CO
*A* 106

*Q* Any idea what viability at 100 µM was measured for C=C1C(=O)C(O)=C2[C@@](C)([C@@H]3OC(=O)C=C3C)C[C@H]3OC(=O)[C@H](O)[C@]1(O)[C@@]23CO ?
*A* 101

*Q* Value lookup for viability at 100 µM; key = CC1=CC(=O)[C@@H](O)[C@]2(C)[C@H]3[C@@H](O)[C@H](O)[C@H](C)[C@]4(O)[C@@H](O)C(=O)O[C@H](C[C@@H]12)[C@]34C
*A* 21

*Q* // lookup viability at 100 µM for CC1=CC(=O)[C@@H](O)[C@]2(C)[C@H]3[C@]4(O)OC[C@@]35[C@@H](C[C@@H]12)OC(=O)[C@H](O)[C@@]5(O)[C@H](C)[C@H]4O
*A* 101

*Q* I'd like to know its viability at 100 µM. The molecule in question is CC1=CC(=O)O[C@H]1[C@@]1(C)C[C@H]2OC(=O)[C@H](O)[C@@]3(O)[C@H](C)C(=O)C(O)=C1[C@@]23CO
*A* 106
